The values you see were collected from the supplement of paper PMC13380429.

# System: Vero E6 infected with SARS-CoV-2
# measurement description: SARS-CoV-2 infection rate relative to infected DMSO; higher = more infection, active = 60 or less
# test parameters: 24 h
The following compounds are shown together with reported SARS-CoV-2 infection rate values.

Would you please look over these solved cases?
compound: CC(Cc1ccc(O)cc1)NCC(O)c1cc(O)cc(O)c1 (stereo unspecified) [fenoterol] (10 µM)
assayed system: Vero E6 infected with SARS-CoV-2
SARS-CoV-2 infection rate: 106% (inactive)

compound: CN1CCN(c2cccc(Nc3nc4c(-c5ccc(S(C)(=O)=O)cc5)cccn4n3)c2)CC1 (0.833333 µM)
assayed system: Vero E6 infected with SARS-CoV-2
SARS-CoV-2 infection rate: 106% (inactive)

Fill in: SARS-CoV-2 infection rate of Cc1n[nH]c2ccc(-c3cncc(OC[C@@H](N)Cc4ccccc4)c3)cc12 (10 µM) is ___
92.5% (inactive)

Then what about the compound CCCn1c(=O)[nH]c2nc(-c3ccc(S(=O)(=O)O)cc3)[nH]c2c1=O (10 µM) ?
105% (inactive)

How about CN1C(=O)/C(=C2/C(=O)Nc3ccccc32)c2ccccc21 [meisoindigo] (0.833333 µM) ?
96.5% (inactive)

Subsequent entry: N[C@@H](Cc1ccc(O)cc1)C(=O)NCC(=O)NCC(=O)O (10 µM)
114% (inactive)

Same again, this time with C=C(C)[C@@H]1CC[C@]2(C(=O)O)CC[C@]3(C)[C@H](CC[C@@H]4[C@@]5(C)CC[C@H](OC(=O)CC(C)(C)C(=O)O)C(C)(C)[C@@H]5CC[C@]43C)[C@@H]12 [bevirimat-dimeglumine] (10 µM)
113% (inactive)

Now consider Cc1c(F)cccc1NC(=O)Nc1ccc(Cl)c(S(=O)(=O)[C@H]2CCCNC2)c1O [danirixin] (10 µM) and answer again.
98% (inactive)

Record: COc1ccc(CC2NCCc3cc(OC)c(OC)cc32)cc1OC (stereo unspecified) [tetrahydropapaverine] (10 µM)
108% (inactive)
